# test summary: LD50 in the male Wistar rat by intravenous administration
# reported conditions: in vivo, i.v.
measured property: LD50 (mg/kg)
Write down the numeric answer in mg/kg and omit the unit.

What value of LD50 has been recorded for this entry: CC(C)(C)NCC(O)COc1cccc2c1SCC(=O)N2 (stereo not drawn)
50

Looking for the measured LD50 of CC(C)CNCC(O)COc1ccc2c(c1)NC(=O)CS2 (stereo not drawn) , can you help?
83

# lookup: LD50 of CC(C)(C)NCC(O)COc1ccc2c(c1)NC(=O)CS2 (stereo not drawn)
75

====

IC50, antagonism in the response of the isolated guinea pig trachea to isoprenaline: recorded values
# Test system: isolated guinea pig trachea
# test summary: Beta-blocking activity by the isolated guinea pig trachea method
# reported conditions: concentration able to inhibit 50% of the response; 37° C., 12 minutes before stimulation
Express the reported value numerically, then name its unit.

// known answers, use as guide
INSERT INTO results (molecule, assayed_target, result) VALUES
  ('CC(C)NCC(O)COc1ccc2c(c1)NC(=O)CS2 (stereo not drawn) [VII]', 'isolated guinea pig trachea', '0.43 µg/mL'),
  ('CC(C)(C)NCC(O)COc1ccc2c(c1)SCC(=O)N2 (stereo not drawn) [Compound XIII]', 'isolated guinea pig trachea', '0.125 µg/mL'),
  ('CC(C)CNCC(O)COc1ccc2c(c1)NC(=O)CS2 (stereo not drawn) [VIII]', 'isolated guinea pig trachea', '1.14 µg/mL'),
  ('CCC(C)NCC(O)COc1ccc2c(c1)SCC(=O)N2 (stereo not drawn) [XIV]', 'isolated guinea pig trachea', '0.25 µg/mL'),
  ('CCC(C)NCC(O)COc1cccc2c1SCC(=O)N2 (stereo not drawn) [XVIII]', 'isolated guinea pig trachea', '1.21 µg/mL');

Now turn to the next molecule.
# query: IC50, antagonism in the response of the isolated guinea pig trachea to isoprenaline of entry CC(C)NCC(O)COc1ccc2c(c1)SCC(=O)N2 (stereo not drawn) [Compound XI]
0.76 µg/mL

====

# test summary: LD50 in the male Wistar rat by intravenous administration
# reported conditions: in vivo, i.v.
Under this convention, fulfilled denotes LD50 strictly below 70 mg/kg and not fulfilled denotes LD50 at or above 70 mg/kg.

INSERT INTO results (compound, category_label) VALUES
  ('CC(C)NCC(O)COc1cccc2c1SCC(=O)N2 (stereo not shown)', 'not fulfilled'),
  ('CC(C)(C)NCC(O)COc1cccc2c1CCC(=O)N2 (stereo not shown) [Carteolol, reference compound]', 'fulfilled'),
  ('CC(C)CNCC(O)COc1ccc2c(c1)SCC(=O)N2 (stereo not shown)', 'not fulfilled');

Report whether reported LD50 is lower than 70 mg/kg (strictly) for CCC(C)NCC(O)COc1cccc2c1SCC(=O)N2 (stereo not shown)
not fulfilled

# strict comparison: is reported LD50 < 70 mg/kg? input = CC(C)CNCC(O)COc1cccc2c1SCC(=O)N2 (stereo not shown)
fulfilled

LD50 under 70 mg/kg? Item: CC(C)NCC(O)COc1ccc2c(c1)SCC(=O)N2 (stereo not shown)
fulfilled

hey, is LD50 for CC(C)NCC(O)COc1ccc2c(c1)NC(=O)CS2 (stereo not shown) lower than 70 mg/kg or not?
not fulfilled

Determine if CCC(C)NCC(O)COc1ccc2c(c1)NC(=O)CS2 (stereo not shown) shows LD50 strictly lower than 70 mg/kg.
not fulfilled

In the record for CC(C)(C)NCC(O)COc1ccc2c(c1)SCC(=O)N2 (stereo not shown) , is LD50 less than 70 mg/kg?
fulfilled
